Origin of measurements: patent US8658642B2

- Experimental System: CCR3 (Homo sapiens)
- Sequence (P51677 1-355): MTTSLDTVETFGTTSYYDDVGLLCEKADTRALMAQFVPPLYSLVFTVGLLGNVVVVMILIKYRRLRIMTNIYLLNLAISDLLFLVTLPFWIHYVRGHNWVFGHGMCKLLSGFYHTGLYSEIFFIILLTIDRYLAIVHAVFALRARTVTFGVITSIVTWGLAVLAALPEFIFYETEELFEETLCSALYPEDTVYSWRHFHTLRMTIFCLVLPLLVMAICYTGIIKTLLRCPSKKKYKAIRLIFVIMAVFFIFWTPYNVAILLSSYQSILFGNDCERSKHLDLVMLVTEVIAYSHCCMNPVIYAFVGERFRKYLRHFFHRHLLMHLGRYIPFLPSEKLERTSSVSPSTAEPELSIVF
pKi: −log10 of the molar value.
The following molecules are listed with their measured pKi values.

# count of solved cases: 3
Input COc1ccc(OC(=O)N2CCN(S(=O)(=O)c3cc(C#N)ccc3Oc3cc(Cl)cc(Cl)c3)CC2)cc1 . Output pKi: < 5.30

Input Cc1cccc(C(=O)N2CCN(S(=O)(=O)c3cc(C#N)ccc3Oc3cc(Cl)cc(Cl)c3)CC2)c1 . Output pKi: ≥ 7.30

Input N#Cc1ccc(Oc2cc(Cl)cc(Cl)c2)c(S(=O)(=O)N2CCN(C(=O)c3ccc(Cl)cc3)CC2)c1 . Output pKi: 6.30 to 7.30

Next:
Input Cc1cc(C)cc(Oc2ccc(C#N)cc2S(=O)(=O)N2CCN(S(=O)(=O)CC34CCC(CC3=O)C4(C)C)CC2)c1 (stereo not shown) . Output pKi: < 5.30
